Biological target: KPNA4 68-487, O00629
Sequence (O00629 68-487): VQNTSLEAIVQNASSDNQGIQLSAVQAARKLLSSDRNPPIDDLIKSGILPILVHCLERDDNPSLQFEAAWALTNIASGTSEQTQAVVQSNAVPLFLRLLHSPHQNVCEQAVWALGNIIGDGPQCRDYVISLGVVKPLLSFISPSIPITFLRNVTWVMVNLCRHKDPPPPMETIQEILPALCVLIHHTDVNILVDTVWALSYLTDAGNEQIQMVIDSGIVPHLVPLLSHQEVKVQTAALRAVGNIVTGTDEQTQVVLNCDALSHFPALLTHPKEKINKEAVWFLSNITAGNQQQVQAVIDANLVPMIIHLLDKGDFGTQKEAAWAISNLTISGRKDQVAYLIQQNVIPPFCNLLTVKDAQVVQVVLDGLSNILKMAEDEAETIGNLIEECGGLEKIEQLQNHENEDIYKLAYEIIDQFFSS
Recorded Metric: selected by phage display

Use the examples below as a reference point.
binder="ELKRKLEQEQKLVEVL [MKL2, Q9ULH7]" recorded_metric="selected by phage display" measured="confidence 3 (active)"
binder="ESPSVKRMRLSEGWAT [MEF2C, Q06413]" recorded_metric="selected by phage display" measured="confidence 2 (active)"
binder="SPTILGKRSYEQHNGV [MTA1, Q13330]" recorded_metric="selected by phage display" measured="confidence 2 (active)"
binder="DHQFPAKRPRLSEPQG [HJURP, Q8NCD3]" recorded_metric="selected by phage display" measured="confidence 2 (active)"
binder="KRPRYDDTVKINSMGG [ZNF318, Q5VUA4]" recorded_metric="selected by phage display" measured="confidence 3 (active)"

Ask: Return reported selected by phage display; argument: GLKRPASQDFEYLQEE [NRK, Q7Z2Y5]
Reply: confidence 2 (active)

Ask: Give the measured selected by phage display of SLAPVKRTYEQMEFPL [ADNP, Q9H2P0] .
Reply: confidence 3 (active)

Hey, just so you know, these numbers are from paper PMC8769072.
